These data points were gathered from ChEMBL document CHEMBL1157584.

protocol_notes: Plasma concentration in CrTac:Ncr-Fox1 (nu) athymic mouse bearing human U87MG cells at 200 mg/kg, po single dose after 4 hrs
Format: ADME, organism-based, U-87MG ATCC
Set-up: dose 200 mg/kg, route oral
parameter_measured: concentration at 4 h (µM)
Numbers only, in µM.

Sample NC1(C(=O)NCc2ccc(Cl)cc2)CCN(c2ncnc3[nH]ccc23)CC1 — what was its concentration at 4 h?
20

---

protocol_notes: Drug level in CrTac:Ncr-Fox1 (nu) athymic mouse tumor bearing human U87MG cells at 200 mg/kg, po single dose after 4 hrs
Format: ADME, organism-based, Neoplasm, U-87MG ATCC
Parameters: dose 200 mg/kg, route oral
particulars: read-out: Drug uptake
parameter_measured: concentration at 4 h
Answer with the figure and its unit, nothing else.

Consider the molecule NC1(C(=O)NCc2ccc(Cl)cc2)CCN(c2ncnc3[nH]ccc23)CC1 and give its measured concentration at 4 h.
43 µM
